Target: 5-HT2A receptor (Homo sapiens)
READOUT_TYPE: IC50
Give me the value, and tack the unit on after it.

INPUT: Give IC50 for this entry on 5-HT2A receptor (Homo sapiens): `COc1ccc2[nH]cc(CCNC(=O)c3cc(=O)cc(C(=O)O)o3)c2c1`
OUTPUT: 7.5 µM

====

Target: MT-1 receptor (Homo sapiens, UniProt P48039)
Construct: expressed in transfected cells; host or cells: CHP-K1 (Chinese hamster ovary) cells (so in the source)
Sequence (P48039 whole entry): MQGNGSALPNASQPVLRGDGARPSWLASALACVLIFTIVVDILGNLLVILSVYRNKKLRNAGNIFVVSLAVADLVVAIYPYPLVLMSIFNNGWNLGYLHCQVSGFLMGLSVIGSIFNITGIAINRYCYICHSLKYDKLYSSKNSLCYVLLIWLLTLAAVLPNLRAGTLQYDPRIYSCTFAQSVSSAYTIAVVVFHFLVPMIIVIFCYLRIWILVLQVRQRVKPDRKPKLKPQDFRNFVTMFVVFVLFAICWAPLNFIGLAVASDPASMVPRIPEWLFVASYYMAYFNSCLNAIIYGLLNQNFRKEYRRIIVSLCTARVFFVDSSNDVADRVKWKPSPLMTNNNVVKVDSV
Assay: 125I-melatonin binding in membranes of CHP-K1 cells, MT-1
Settings: 0.05 nM 125I-melatonin, 25° C., 3 hours; read-out: MT-1 receptor binding IC50
pIC50: −log10 of the molar value.
Label True for high-side pIC50 (at or above 6) and False for low-side pIC50 (below it).

Sample answers from the record:
[[record]]
smi = "COc1ccc2[nH]cc(CCNC(=O)c3cc(=O)cc(C(=O)O)o3)c2c1"
assigned_class = "False"

[[record]]
smi = "COc1ccc2[nH]c(Br)c(CCNC(=O)c3ccc(=O)oc3)c2c1"
assigned_class = "False"

[[record]]
smi = "COc1ccc2[nH]cc(CCNC(=O)c3cc(=O)cco3)c2c1"
assigned_class = "True"

[[record]]
smi = "COc1ccc2[nH]cc(CCNC(=O)c3cccc(=O)o3)c2c1"
assigned_class = "False"


INPUT: Decide: pIC50 of `COc1ccc2[nH]cc(CCNC(=O)c3cc(=O)c(OC)co3)c2c1` >= 6?
OUTPUT: False

====

Target: 5-HT2A receptor (Homo sapiens, UniProt P28223)
Sequence (P28223 whole entry): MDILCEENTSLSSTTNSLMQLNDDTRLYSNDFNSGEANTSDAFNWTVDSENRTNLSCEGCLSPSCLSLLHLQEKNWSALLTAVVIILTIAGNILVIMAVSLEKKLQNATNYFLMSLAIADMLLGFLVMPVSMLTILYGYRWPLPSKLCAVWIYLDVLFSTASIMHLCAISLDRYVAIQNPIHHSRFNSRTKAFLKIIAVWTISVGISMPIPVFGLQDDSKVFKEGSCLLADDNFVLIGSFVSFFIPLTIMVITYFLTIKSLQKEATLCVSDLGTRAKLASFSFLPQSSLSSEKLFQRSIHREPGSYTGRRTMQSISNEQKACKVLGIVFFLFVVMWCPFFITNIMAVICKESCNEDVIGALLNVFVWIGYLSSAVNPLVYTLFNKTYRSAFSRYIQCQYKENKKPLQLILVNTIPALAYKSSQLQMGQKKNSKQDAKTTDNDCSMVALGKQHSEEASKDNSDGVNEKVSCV
READOUT_TYPE: Ki (nM)
Reply numerically in nM, unit not repeated.

INPUT: Tell me Ki reported for `COc1ccc2[nH]cc(CCNC(=O)c3cc(=O)cc(C(=O)O)o3)c2c1`
OUTPUT: 2140

====

Target: 5-HT7 receptor (Homo sapiens, UniProt P34969)
Construct: expressed in transfected cells; host or cells: CHO-K1
Sequence (P34969 whole entry): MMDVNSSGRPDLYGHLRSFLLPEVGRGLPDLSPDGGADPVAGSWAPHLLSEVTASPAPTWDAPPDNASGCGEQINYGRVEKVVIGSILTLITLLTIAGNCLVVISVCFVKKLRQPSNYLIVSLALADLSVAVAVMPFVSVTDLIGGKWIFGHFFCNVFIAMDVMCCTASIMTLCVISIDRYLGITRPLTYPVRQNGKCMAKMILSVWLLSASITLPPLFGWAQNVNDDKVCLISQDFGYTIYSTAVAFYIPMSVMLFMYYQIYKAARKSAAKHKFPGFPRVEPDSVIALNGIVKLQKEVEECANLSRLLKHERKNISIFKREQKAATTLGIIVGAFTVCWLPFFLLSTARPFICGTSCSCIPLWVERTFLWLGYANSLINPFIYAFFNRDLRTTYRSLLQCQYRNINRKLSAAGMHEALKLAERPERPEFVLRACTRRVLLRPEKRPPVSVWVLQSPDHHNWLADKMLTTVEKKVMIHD
Test: Serotonin receptor binding, [3H] LSD, CHO-K1 membranes
READOUT_TYPE: IC50 (nM)
Reply numerically in nM, unit not repeated.

INPUT: Give IC50 for this entry on 5-HT7 receptor (Homo sapiens, UniProt P34969): `COc1ccc2[nH]cc(CCNC(=O)c3cc(=O)c(O)co3)c2c1`
OUTPUT: 230

====

Target: 5-HT1B receptor (Homo sapiens, UniProt P28222)
Construct: expressed in transfected cells; host or cells: CHO-K1
Sequence (P28222 whole entry): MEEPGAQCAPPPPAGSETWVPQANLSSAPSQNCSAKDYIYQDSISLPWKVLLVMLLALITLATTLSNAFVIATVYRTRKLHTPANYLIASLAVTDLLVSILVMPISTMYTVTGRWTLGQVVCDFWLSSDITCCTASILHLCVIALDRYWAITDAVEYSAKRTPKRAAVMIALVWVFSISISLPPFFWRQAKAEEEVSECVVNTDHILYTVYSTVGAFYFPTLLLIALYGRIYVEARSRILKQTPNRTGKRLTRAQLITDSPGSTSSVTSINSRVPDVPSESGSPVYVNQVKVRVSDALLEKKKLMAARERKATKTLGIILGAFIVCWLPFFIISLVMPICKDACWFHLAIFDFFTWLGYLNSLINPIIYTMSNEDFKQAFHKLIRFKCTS
Test: Serotonin receptor binding, [125I] Cyanopindolol, CHO-K1 membranes
Method: Aliquots of suspended membranes of human recombinant CHO-K1 cells stably expressing human 5-HT1A, 5-HT2A, 5-HT1B, 5-HT2B, 5-HT2C, 5-HT4, 5-HT6 or 5-HT7 receptors were pre-incubated at 25° C. with 1.5 nM [^3H] 8-OH-DPAT (5-HT1A), 1.5 nM [^3H] Ketanserin (5-HT2A), 0.01 nM [^125I] Cyanopindolol (5-HT1B), 1 nM [^3H] Mesulergine (5-HT2c), 0.7 nM [^3H] […] Membranes were then collected, and the filters containing the bound ligands were assayed for the amount of radioactivity in a b-counter. […]
READOUT_TYPE: IC50 (µM)
Reply numerically in µM, unit not repeated.

INPUT: Tell me IC50 reported for `COc1ccc2[nH]cc(CCNC(=O)c3cc(=O)c(O)co3)c2c1`
OUTPUT: 3.91

All figures here come from patent US9101613B2.
